- Test system: Smad1/5/8 signaling pathway
- METHOD_SUMMARY: Growth factor receptor activation: quantification of western blots of phospho-Smad1/5/8
- Format: cell-based
- APPLIED_CONDITIONS: human osteosarcoma cells MG63; 400 ng/mL GFR-binding compound; Table 4
Listing: p-Smad1/5/8 (%) of selected sequences
Give your result in % as a bare value.

INSERT INTO measurements (input_sequence, reported_endpoint, val) VALUES
  ('VPTELSPISILFIVGGKPKVYKQYENMVVE (Non-cyclic GFR-binding peptide) [SEQ ID NO: 90]', 'p-Smad1/5/8 (%)', 36),
  ('APTKLEPLTIVYYDDSSNVIEQLSNNMVVR (Non-cyclic GFR-binding peptide) [SEQ ID NO: 88]', 'p-Smad1/5/8 (%)', 32),
  ('SRVHHNAISTLYFDESSNVILKKYRGMSVVE (Non-cyclic GFR-binding peptide) [SEQ ID NO: 91]', 'p-Smad1/5/8 (%)', 56),
  ('VPQALSPISILYIDDMGVPTYKQYEEGMSVAE (Non-cyclic GFR-binding peptide) [SEQ ID NO: 68]', 'p-Smad1/5/8 (%)', 39),
  ('VPQALSPISILFIRLKPHQGHLGEMSNMVVR (Non-cyclic GFR-binding peptide) [SEQ ID NO: 85]', 'p-Smad1/5/8 (%)', 26);

Task item: Need p-Smad1/5/8 (%), item VPQALSPINMLYFNEKNQIIYGKIPFLQHNK (Non-cyclic GFR-binding peptide) [SEQ ID NO: 75]
Reply: 54

Task item: Need p-Smad1/5/8 (%), item VPARLSPISILYIDEMGVPTYKQYEEGMSVAE (Non-cyclic GFR-binding peptide) [SEQ ID NO: 83]
Reply: 33

Task item: Need p-Smad1/5/8 (%), item RNVQCRPTQLEPLPIVYYEIVRKKPEQLSNTLEDHLA [SEQ ID NO: 81] (Non-cyclic GFR-binding peptide)
Reply: 41

Task item: Need p-Smad1/5/8 (%), item VPEKMSSLSILFFDENKNVVLKVYPNMAVS (Non-cyclic GFR-binding peptide) [SEQ ID NO: 73]
Reply: 44

Task item: Need p-Smad1/5/8 (%), item VPTHHSAISMLYLELGGDKPLENYQFLQ (Non-cyclic GFR-binding peptide) [SEQ ID NO: 97]
Reply: 46
